# procedure_summary: Absorbance and fluorescence emission spectra (SpectraMax M2)
# Assay type: physicochemical
# particulars: BDCAC library, Table 3
parameter: λmax Absorp. (nm)

[
  {
    "molecule": "COc1cc(OC)cc(-c2cn(-c3ccc4n3[B-](F)(F)[N+]3=C(N5CCCCC5)C=CC3=C4c3ccc(NC(C)=O)cc3)nn2)c1 [BDCAC-14]",
    "reported_measurement": 464
  },
  {
    "molecule": "CC(=O)Nc1ccc(C2=C3C=CC(N4CCCCC4)=[N+]3[B-](F)(F)n3c2ccc3-n2cc(C3CCCC3)nn2)cc1 [BDCAC-5]",
    "reported_measurement": 469
  },
  {
    "molecule": "CC(=O)Nc1ccc(C2=C3C=CC(N4CCCCC4)=[N+]3[B-](F)(F)n3c2ccc3-n2cc(-c3ccc(N(C)C)cc3)nn2)cc1 [BDCAC-13]",
    "reported_measurement": 467
  },
  {
    "molecule": "CCCc1cn(-c2ccc3n2[B-](F)(F)[N+]2=C(N4CCCCC4)C=CC2=C3c2ccc(NC(C)=O)cc2)nn1 [BDCAC-48]",
    "reported_measurement": 467
  },
  {
    "molecule": "CC(=O)Nc1ccc(C2=C3C=CC(N4CCCCC4)=[N+]3[B-](F)(F)n3c2ccc3-n2cc(CO)nn2)cc1 [BDCAC-70]",
    "reported_measurement": 467
  },
  {
    "molecule": "CC(=O)Nc1ccc(C2=C3C=CC(N4CCCCC4)=[N+]3[B-](F)(F)n3c2ccc3-n2cc(C3=CCCCC3)nn2)cc1 [BDCAC-37]",
    "reported_measurement": 466
  },
  {
    "molecule": "CC(=O)Nc1ccc(C2=C3C=CC(N4CCCCC4)=[N+]3[B-](F)(F)n3c2ccc3-n2cc(COc3ccccc3)nn2)cc1 [BDCAC-17]",
    "reported_measurement": 465
  },
  {
    "molecule": "CC(=O)Nc1ccc(C2=C3C=CC(N4CCCCC4)=[N+]3[B-](F)(F)n3c2ccc3-n2cc(-c3ccc(F)c(F)c3)nn2)cc1 [BDCAC-16]",
    "reported_measurement": 462
  },
  {
    "molecule": "CCCCCc1ccc(-c2cn(-c3ccc4n3[B-](F)(F)[N+]3=C(N5CCCCC5)C=CC3=C4c3ccc(NC(C)=O)cc3)nn2)cc1 [BDCAC-29]",
    "reported_measurement": 465
  },
  {
    "molecule": "CC(=O)Nc1ccc(C2=C3C=CC(N4CCCCC4)=[N+]3[B-](F)(F)n3c2ccc3-n2cc(-c3ccc(C)cc3)nn2)cc1 [BDCAC-10]",
    "reported_measurement": 464
  },
  {
    "molecule": "CC(=O)Nc1ccc(C2=C3C=CC(N4CCCCC4)=[N+]3[B-](F)(F)n3c2ccc3-n2cc(CN(C)C)nn2)cc1 [BDCAC-2]",
    "reported_measurement": 466
  },
  {
    "molecule": "CC(=O)Nc1ccc(C2=C3C=CC(N4CCCCC4)=[N+]3[B-](F)(F)n3c2ccc3-n2cc(-c3ccc(F)cc3F)nn2)cc1 [BDCAC-26]",
    "reported_measurement": 465
  },
  {
    "molecule": "CC(=O)Nc1ccc(C2=C3C=CC(N4CCCCC4)=[N+]3[B-](F)(F)n3c2ccc3-n2cc(CCC(C)C)nn2)cc1 [BDCAC-36]",
    "reported_measurement": 467
  }
]
